system: HeLa Kyoto; test: solubility change mitosis vs G1/S (difference of NP-40 vs SDS log2 ratios) (log2 ratio difference); higher = more soluble in mitosis;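 further: synchronized HeLa Kyoto cells (double thymidine block for G1/S, nocodazole release for mitosis), protein amounts in NP-40 versus SDS lysates quantified by mass spectrometry, three biological replicates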
// values below are reported solubility change mitosis (log2)

sequenceInput	solubility change mitosis (log2)
MIVQRVVLNSRPGKNGNPVAENFRMEEVYLPDNINEGQVQVRTLYLSVDPYMRCRMNEDTGTDYITPWQLSQVVDGGGIGIIEESKHTNLTKGDFVTSFYWPWQTKVILDGNSLEKVDPQLVDGHLSYFLGAIGMPGLTSLIGIQEKGHITAGSNKTMVVSGAAGACGSVAGQIGHFLGCSRVVGICGTHEKCILLTSELGFDAAINYKKDNVAEQLRESCPAGVDVYFDNVGGNISDTVISQMNENSHIILCGQISQYNKDVPYPPPLSPAIEAIQKERNITRERFLVLNYKDKFEPGILQLSQWFKEGKLKIKETVINGLENMGAAFQSMMTGGNIGKQIVCISEEISL [PTGR2]	-0.0529
MSGDSSGRGPEGRGRGRDPHRDRTRSRSRSRSPLSPRSRRGSARERREAPERPSLEDTEPSDSGDEMMDPASLEAEADQGLCRQIRHQYRALINSVQQNREDILNAGDKLTEVLEEANTLFNEVSRAREAVLDAHFLVLASDLGKEKAKQLRSDLSSFDMLRYVETLLTHMGVNPLEAEELIRDEDSPDFEFIVYDSWKITGRTAENTFNKTHTFHFLLGSIYGECPVPKPRVDRPRKVPVIQEERAMPAQLRRMEESHQEATEKEVERILGLLQTYFREDPDTPMSFFDFVVDPHSFPRTVENIFHVSFIIRDGFARIRLDQDRLPVIEPVSINEENEGFEHNTQVRNQGIIALSYRDWEEIVKTFEISEPVITPSQRQQKPSA [NSMCE4A]	0.00196

All values here come from the supplement of paper PMC5998384.
